# System: Cannabinoid receptor 1 (Homo sapiens, UniProt P21554)
# Sequence (P21554 whole entry): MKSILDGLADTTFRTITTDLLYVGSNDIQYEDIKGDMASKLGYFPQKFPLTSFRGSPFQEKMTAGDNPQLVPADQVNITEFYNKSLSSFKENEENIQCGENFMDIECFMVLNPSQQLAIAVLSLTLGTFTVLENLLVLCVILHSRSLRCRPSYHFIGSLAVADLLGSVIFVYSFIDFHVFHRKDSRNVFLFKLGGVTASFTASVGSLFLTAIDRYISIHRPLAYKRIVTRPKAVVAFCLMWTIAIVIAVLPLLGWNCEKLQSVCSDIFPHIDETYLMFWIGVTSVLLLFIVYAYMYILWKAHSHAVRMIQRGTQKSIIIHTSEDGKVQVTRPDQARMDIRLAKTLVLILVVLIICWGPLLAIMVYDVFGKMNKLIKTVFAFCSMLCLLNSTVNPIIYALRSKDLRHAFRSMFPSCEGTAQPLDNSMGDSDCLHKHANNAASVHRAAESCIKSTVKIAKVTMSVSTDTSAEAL
# Assay name: Antagonist activity at human cannabinoid CB1 receptor expressed in CHO cells by luciferase reporter gene assay
Value type: log10 of IC50 (log10 of the value in nM)
Units before log transform: nM; reported quantity: IC50; transform: log10.

Some compounds with known log10 of IC50 results, for comparison:
| Molecule smiles | Quantitative readout |
| --- | --- |
| COc1cc(F)ccc1-c1cccc(Cn2cnc3ccc(NC(=O)C(C)(C)C)cc32)c1 | 2.43 |
| COc1cc(F)ccc1-c1cccc(Cc2cn(C)c3ccc(NC(=O)C(C)(C)CO)cc23)n1 | 1.43 |
| CC(C)(CO)C(=O)Nc1ccc2ccn(Cc3cccc(-c4cccc5c4OCO5)n3)c2c1 | 0.85 |
| COc1cc(F)ccc1-c1cccc(Cn2ccc3ccc(NC(=O)CC(C)(C)O)cc32)n1 | 1.36 |
| Cn1cc(Cc2cccc(-c3cccc4c3OCO4)n2)c2cc(NC(=O)CC(C)(C)O)ccc21 | 0.70 |

Request: Requested read-out: log10 of IC50. Entry: `Cn1cc(Cc2cccc(-c3cccc4c3OCO4)n2)c2cc(NC(=O)C(C)(C)CO)ccc21`
Result: 0.85

Request: Requested read-out: log10 of IC50. Entry: `COc1cc(F)ccc1-c1cccc(Cc2cn(C)c3ccc(NC(=O)C(C)(C)C)cc23)c1`
Result: 1.65

----------
# Assay name: AUC (0 to 7.5 hrs) in Wistar rat at 5 mg/kg, po
# Assay type: ADME, organism-based
# Design: time < 7.5 hr, dose 5 mg/kg, route oral
# Condition summary: plasma
Value type: AUC(0-t) at 7.5 h (ng·h/mL)
Report the value in ng·h/mL with no unit label.

Request: Requested read-out: AUC(0-t) at 7.5 h. Entry: `Cn1cc(Cc2cccc(-c3cccc4c3OCO4)n2)c2cc(NC(=O)CC(C)(C)O)ccc21`
Result: 1290

----------
# Assay name: Oral bioavailability in Wistar rat at 5 mg/kg
# Format: ADME, organism-based
# Condition summary: in vivo
Value type: bioavailability (%)
Report the value in % with no unit label.

Request: Requested read-out: bioavailability. Entry: `Cn1cc(Cc2cccc(-c3cccc4c3OCO4)n2)c2cc(NC(=O)CC(C)(C)O)ccc21`
Result: 37

----------
Reported values of remaining at 0.5 h for individual entries
# Assay name: Metabolic stability in mouse liver microsome assessed as compound remaining after 0.5 hrs
# Assay type: ADME
# Condition summary: liver microsomes, read-out: Stability
Report the value in % with no unit label.

Some compounds with known remaining at 0.5 h results, for comparison:
| Molecule smiles | Scale unit | remaining at 0.5 h |
| --- | --- | --- |
| CC(C)(CO)C(=O)Nc1ccc2ccn(Cc3cccc(-c4cccc5c4OCO5)n3)c2c1 | % | 52 |
| COc1cc(F)ccc1-c1cccc(Cn2ccc3ccc(NC(=O)C(C)(C)C)cc32)c1 | % | 58 |
| COc1ccccc1-c1cccc(Cn2cnc3ccc(C(=O)NCc4cccc(F)c4)cc32)c1 | % | 0 |

Request: Requested read-out: remaining at 0.5 h. Entry: `COc1cc(F)ccc1-c1cccc(Cc2cn(C)c3ccc(NC(=O)C(C)(C)C)cc23)c1`
Result: 72

Request: Requested read-out: remaining at 0.5 h. Entry: `CC(C)(O)CC(=O)Nc1ccc2ccn(Cc3cccc(-c4cccc5c4OCO5)n3)c2c1`
Result: 53

Request: Requested read-out: remaining at 0.5 h. Entry: `Cn1cc(Cc2cccc(-c3cccc4c3OCO4)c2)c2cc(NC(=O)C(C)(C)C)ccc21`
Result: 29

Request: Requested read-out: remaining at 0.5 h. Entry: `CC(C)(C)C(=O)Nc1ccc2ncn(Cc3cccc(-c4cccc5c4OCO5)n3)c2c1`
Result: 17

Request: Requested read-out: remaining at 0.5 h. Entry: `COc1cc(F)ccc1-c1cccc(Cn2ccc3ccc(NC(=O)C(C)(C)CO)cc32)n1`
Result: 54

Request: Requested read-out: remaining at 0.5 h. Entry: `Cn1cc(Cc2cccc(-c3cccc4c3OCO4)n2)c2cc(NC(=O)C(C)(C)CO)ccc21`
Result: 16

Request: Requested read-out: remaining at 0.5 h. Entry: `COc1cc(F)ccc1-c1cccc(Cn2ccc3ccc(NC(=O)CC(C)(C)O)cc32)n1`
Result: 44

----------
Reported values of remaining at 0.5 h for individual entries
# Assay name: Metabolic stability in mouse liver microsome assessed as compound remaining after 0.5 hrs
# Format: ADME
# Condition summary: liver microsomes, read-out: Stability

Some compounds with known remaining at 0.5 h results, for comparison:
| Molecule smiles | remaining at 0.5 h |
| --- | --- |
| COc1cc(F)ccc1-c1cccc(Cc2cn(C)c3ccc(NC(=O)CC(C)(C)O)cc23)n1 | 14% |
| COc1cc(F)ccc1-c1cccc(Cc2cn(C)c3ccc(NC(=O)C(C)(C)CO)cc23)n1 | 5% |

Request: Requested read-out: remaining at 0.5 h. Entry: `CC(C)(C)C(=O)Nc1ccc2ncn(Cc3cccc(-c4cccc5c4OCO5)c3)c2c1`
Result: 2%

Request: Requested read-out: remaining at 0.5 h. Entry: `COc1cc(F)ccc1-c1cccc(Cn2cnc3ccc(NC(=O)C(C)(C)C)cc32)n1`
Result: 1%

Request: Requested read-out: remaining at 0.5 h. Entry: `Cn1cc(Cc2cccc(-c3cccc4c3OCO4)n2)c2cc(NC(=O)CC(C)(C)O)ccc21`
Result: 36%

Request: Requested read-out: remaining at 0.5 h. Entry: `CC(C)(C)C(=O)Nc1ccc2ccn(Cc3cccc(-c4cccc5c4OCO5)c3)c2c1`
Result: 65%

Values from ChEMBL document CHEMBL1221379
